targetEntity: Serotonin 2 (5-HT2) receptor (Rattus norvegicus) (UniProt P30994+P08909+P14842)
Sequence (P08909 whole entry, looked up): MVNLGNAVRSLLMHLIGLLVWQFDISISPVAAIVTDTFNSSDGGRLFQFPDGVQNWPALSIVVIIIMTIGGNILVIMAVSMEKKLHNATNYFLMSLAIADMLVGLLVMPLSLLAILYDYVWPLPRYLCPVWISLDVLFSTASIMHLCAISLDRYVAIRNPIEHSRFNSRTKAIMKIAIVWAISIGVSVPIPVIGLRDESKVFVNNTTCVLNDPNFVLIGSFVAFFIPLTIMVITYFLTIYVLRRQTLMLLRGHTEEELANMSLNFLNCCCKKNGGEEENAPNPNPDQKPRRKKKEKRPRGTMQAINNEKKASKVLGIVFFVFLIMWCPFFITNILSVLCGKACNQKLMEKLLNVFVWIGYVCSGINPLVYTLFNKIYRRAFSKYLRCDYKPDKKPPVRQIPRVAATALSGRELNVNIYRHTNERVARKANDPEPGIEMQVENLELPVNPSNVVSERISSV
Sequence (P14842 whole entry, looked up): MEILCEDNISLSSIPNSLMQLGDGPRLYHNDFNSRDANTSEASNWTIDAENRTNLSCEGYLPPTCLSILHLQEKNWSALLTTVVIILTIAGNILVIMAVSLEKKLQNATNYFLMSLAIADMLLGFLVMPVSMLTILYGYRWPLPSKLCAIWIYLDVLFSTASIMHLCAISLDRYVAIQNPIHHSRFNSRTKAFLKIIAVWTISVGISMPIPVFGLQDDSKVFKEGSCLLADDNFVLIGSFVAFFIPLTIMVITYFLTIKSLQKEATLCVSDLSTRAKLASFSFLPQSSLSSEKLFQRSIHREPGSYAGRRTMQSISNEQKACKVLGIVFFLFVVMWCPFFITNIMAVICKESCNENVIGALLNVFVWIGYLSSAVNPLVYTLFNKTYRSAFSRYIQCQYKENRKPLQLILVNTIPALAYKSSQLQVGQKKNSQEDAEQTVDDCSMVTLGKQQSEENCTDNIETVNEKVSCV
Sequence (P30994 whole entry, looked up): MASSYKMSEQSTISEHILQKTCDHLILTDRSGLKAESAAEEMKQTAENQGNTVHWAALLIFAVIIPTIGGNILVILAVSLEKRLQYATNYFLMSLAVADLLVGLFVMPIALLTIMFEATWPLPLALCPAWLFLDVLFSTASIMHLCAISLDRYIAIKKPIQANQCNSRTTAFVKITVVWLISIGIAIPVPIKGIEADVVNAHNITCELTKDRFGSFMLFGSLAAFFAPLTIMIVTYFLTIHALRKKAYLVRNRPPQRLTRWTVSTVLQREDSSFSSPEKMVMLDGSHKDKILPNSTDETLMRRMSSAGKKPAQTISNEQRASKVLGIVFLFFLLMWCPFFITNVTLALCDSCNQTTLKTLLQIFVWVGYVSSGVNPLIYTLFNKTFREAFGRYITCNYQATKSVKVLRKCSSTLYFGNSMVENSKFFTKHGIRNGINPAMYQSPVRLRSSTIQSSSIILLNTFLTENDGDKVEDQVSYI
assayText: Affinity towards 5-hydroxytryptamine 2 receptor by measuring its ability to antagonize serotonin-induced contractions in the rat jugular vein.
valueKind: -Log KB
Answers are plain numbers.

compound=CCc1c(C)[nH]c2ccc(N(C)C)cc12 valuekind="-Log KB" reading=4.93

For each of the items listed, what is its -Log KB?
1. CC(O)C(C)OC(=O)C1CC2c3cccc4c3c(cn4Cc3ccccc3)CC2N(C)C1 (stereo unspecified)
2. COC(=O)C1CC2c3cccc4c3c(cn4CC(C)C)CC2N(C)C1 (stereo unspecified)
3. C=CCn1cc2c3c(cccc31)C1CC(C(=O)OC)CN(C)C1C2 (stereo unspecified)
4. CN1CC(C(=O)OCCO)CC2c3cccc4c3c(cn4C)CC21 (stereo unspecified)
5. C=CCn1cc2c3c(cccc31)C1CC(C(=O)OCCO)CN(C)C1C2 (stereo unspecified)
6. CCc1c(C)n(C(C)C)c2ccc(N(C)C)cc12
7. CCCn1cc2c3c(cccc31)C1CC(C(=O)OC)CN(C)C1C2 (stereo unspecified)

Solution:
[7.37, 7.57, 7.89, 8.63, 8.17, 7.28, 7.72]

----------
targetEntity: Serotonin 2 (5-HT2) receptor (Rattus norvegicus) (UniProt P30994+P08909+P14842)
assayText: Affinity towards 5-hydroxytryptamine 2 receptor by measuring its ability to antagonize serotonin-induced contractions in the rat jugular vein.
valueKind: -Log KB
Numbers only.

Some compounds with known -Log KB results, for comparison:
compound=CCc1c(C)n(CC)c2ccc(N(C)C)cc12 reading=6.45
compound="COC(=O)C1CC2c3cccc4c3c(cn4C(C)C)CC2N(C)C1 (stereo unspecified)" reading=8.29
compound="COC(=O)C1CC2c3cccc4[nH]cc(c34)CC2N(C)C1 (stereo unspecified)" reading=8.1

For each of the items listed, what is its -Log KB?
1. CC(O)C(C)OC(=O)C1CC2c3cccc4c3c(cn4C)CC2N(C)C1 (stereo unspecified)
2. CN1CC(C(=O)OCCO)CC2c3cccc4c3c(cn4Cc3ccccc3)CC21 (stereo unspecified)
3. CCn1cc2c3c(cccc31)C1CC(C(=O)OC)CN(C)C1C2 (stereo unspecified)
4. CC(O)C(C)OC(=O)C1CC2c3cccc4c3c(cn4C(C)C)CC2N(C)C1 (stereo unspecified)
5. CCc1c(C)n(C)c2ccc(N(C)C)cc12
6. CC(C)n1cc2c3c(cccc31)C1CC(C(=O)OCCO)CN(C)C1C2 (stereo unspecified)

Solution:
1. 9.26
2. 8.12
3. 8.12
4. 9.76
5. 6.51
6. 9.13

Problem: Write down -Log KB measured for item CC(O)C(C)OC(=O)C1CC2c3cccc4[nH]cc(c34)CC2N(C)C1 (stereo unspecified)
Solution: 8.42

----------
targetEntity: Serotonin 2 (5-HT2) receptor (Rattus norvegicus) (UniProt P30994+P08909+P14842)
assayText: Affinity towards 5-hydroxytryptamine 2 receptor by measuring its ability to antagonize serotonin-induced contractions in the rat jugular vein.
Class YES: -Log KB at least 8. Class NO: -Log KB below 8.

// known answers, use as guide
molecule="COC(=O)C1CC2c3cccc4c3c(cn4Cc3ccccc3)CC2N(C)C1 (stereo not given)" assignedclass=NO
molecule="CCCn1cc2c3c(cccc31)C1CC(C(=O)OC(C)C(C)O)CN(C)C1C2 (stereo not given)" assignedclass=YES
molecule="CN1CC(C(=O)OCCO)CC2c3cccc4[nH]cc(c34)CC21 (stereo not given)" assignedclass=NO
molecule="CC(O)C(C)OC(=O)C1CC2c3cccc4c3c(cn4C3CCCCCC3)CC2N(C)C1 (stereo not given)" assignedclass=NO

Problem: Hi team, for CCn1cc2c3c(cccc31)C1CC(C(=O)OC(C)C(C)O)CN(C)C1C2 (stereo not given) , is the recorded -Log KB at or above 8?
Solution: YES
